experimental.target: Cyclooxygenase-2 (COX-2) (Homo sapiens, UniProt P35354)
Construct: Quiescent HUV-EC-C cells were treated with 50 nM TPA for 6 h at 37° C. to induce the COX-2 isoenzyme; endogenous in cells; host or cells: HUV-EC-C human endothelial cell line, passage 19-27, induced with 50 nM TPA/PMA
Sequence (P35354 18-604): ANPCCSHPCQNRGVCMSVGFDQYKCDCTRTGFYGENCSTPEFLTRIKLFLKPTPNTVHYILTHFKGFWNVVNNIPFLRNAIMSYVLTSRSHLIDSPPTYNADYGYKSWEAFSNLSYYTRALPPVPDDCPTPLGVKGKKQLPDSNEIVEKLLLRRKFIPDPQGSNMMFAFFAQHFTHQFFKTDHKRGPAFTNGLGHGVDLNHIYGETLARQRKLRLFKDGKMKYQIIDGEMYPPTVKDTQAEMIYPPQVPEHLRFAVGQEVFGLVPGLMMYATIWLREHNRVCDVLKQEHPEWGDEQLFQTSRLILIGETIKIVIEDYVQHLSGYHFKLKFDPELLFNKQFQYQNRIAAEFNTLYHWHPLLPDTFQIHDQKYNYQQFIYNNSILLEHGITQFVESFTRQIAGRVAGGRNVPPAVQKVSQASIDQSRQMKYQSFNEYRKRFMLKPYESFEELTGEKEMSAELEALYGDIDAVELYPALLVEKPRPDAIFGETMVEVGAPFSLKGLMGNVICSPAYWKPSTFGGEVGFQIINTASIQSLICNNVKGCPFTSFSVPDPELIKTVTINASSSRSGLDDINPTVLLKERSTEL
method: Inhibition of cyclooxygenase-2 (COX-2) activity in HUV-EC-C cell line (prostaglandin E2 ELISA)
Format: cell-based
measurement.setup: ratio of IC50 COX-1 (platelets) to IC50 COX-2 (HUV-EC-C)
quantity.kind: Ratio COX-1:COX-2
Lab note: write the figure by itself, no unit.

Looking up "NS(=O)(=O)c1ccc(-c2coc(=O)n2-c2ccc(Cl)c(Cl)c2)cc1" , I found its Ratio COX-1:COX-2 recorded as 58.3

Looking up "CS(=O)(=O)c1ccc(-c2coc(=O)n2-c2ccc(F)cc2)cc1" , I found its Ratio COX-1:COX-2 recorded as 39.6

Looking up "NS(=O)(=O)c1ccc(-c2coc(=O)n2-c2ccc(F)cc2)cc1" , I found its Ratio COX-1:COX-2 recorded as 2.8

Looking up "NS(=O)(=O)c1ccc(-c2coc(=O)n2-c2ccccc2F)cc1" , I found its Ratio COX-1:COX-2 recorded as 2354

Looking up "NS(=O)(=O)c1ccc(-c2coc(=O)n2-c2ccc(F)cc2F)cc1" , I found its Ratio COX-1:COX-2 recorded as 89

----------
experimental.target: Cyclooxygenase-2 (COX-2) (Homo sapiens, UniProt P35354)
Construct: Quiescent HUV-EC-C cells were treated with 50 nM TPA for 6 h at 37° C. to induce the COX-2 isoenzyme; endogenous in cells; host or cells: HUV-EC-C human endothelial cell line, passage 19-27, induced with 50 nM TPA/PMA
method: Inhibition of cyclooxygenase-2 (COX-2) activity in HUV-EC-C cell line (prostaglandin E2 ELISA)
Type: cell-based
measurement.setup: PMA/TPA-induced HUV-EC-C cells, 50 μM arachidonic acid, mean of three independent experiments; read-out: COX-2 (μM), results expressed as IC50 values
quantity.kind: IC50 (µM)
Field: numeric (µM). Do not append units.

Worked set:
{"columns": ["compound", "IC50 / µM"],
 "data": [
  ["NS(=O)(=O)c1ccc(-c2coc(=O)n2-c2ccc(F)cc2)cc1 [Compound 18]", 0.53],
  ["CS(=O)(=O)c1ccc(-c2coc(=O)n2-c2ccc(Br)cc2)cc1 [Compound 9]", 0.11],
  ["NS(=O)(=O)c1ccc(-c2coc(=O)n2-c2ccc(F)cc2F)cc1 [Compound 27]", 0.1],
  ["NS(=O)(=O)c1ccc(-c2coc(=O)n2-c2ccc(Cl)c(Cl)c2)cc1 [Compound 20]", 0.06],
  ["CS(=O)(=O)c1ccc(-c2coc(=O)n2-c2ccc(F)cc2)cc1 [Compound 6]", 3.2]
]}

Looking up NS(=O)(=O)c1ccc(-c2coc(=O)n2-c2ccccc2F)cc1 [Compound 26] , I found its IC50 recorded as 0.0096

----------
System: glandular stomach
method: Ulcerogenic activity (gastric lesion index)
Format: in vivo, Male Wistar rat
measurement.setup: oral route, fasted rats, sacrificed 6 hours after dosage
Recorded UD50 by entry

{"columns": ["compound", "reported.result"],
 "data": [
  ["COc1ccc2c(c1)c(CC(=O)O)c(C)n2C(=O)c1ccc(Cl)cc1 [Indomethacin, reference compound]", "17 mg/kg"]
]}

For "NS(=O)(=O)c1ccc(-c2coc(=O)n2-c2ccccc2F)cc1" on glandular stomach, measured UD50 was >100 mg/kg

For "NS(=O)(=O)c1ccc(-c2coc(=O)n2-c2ccc(F)cc2F)cc1" on glandular stomach, measured UD50 was >100 mg/kg

For "NS(=O)(=O)c1ccc(-c2coc(=O)n2-c2ccc(Cl)c(Cl)c2)cc1" on glandular stomach, measured UD50 was >100 mg/kg

For "CS(=O)(=O)c1ccc(-c2coc(=O)n2-c2ccc(F)cc2)cc1" on glandular stomach, measured UD50 was >100 mg/kg

Provenance of the data: patent US6869968B1
